- protocol_description: Compound 122 saliva concentrations in healthy human subjects after oral administration (HPLC-MS/MS)
- Type: in vivo
- protocol_conditions: human, saliva, po, 10 mg, EM + paroxetine; Day 6; 10 mg b.i.d. oral; 4 hr; read-out: Mean saliva concentration, EM + paroxetine, Mean ± SD
endpoint: concentration at 4 h (ng/mL)
Answer format: numeric, ng/mL implied, no suffix.

Reported concentration at 4 h, compound COc1ccc(OC(F)(F)F)cc1CNC1CCCNC1c1ccccc1 (stereo not shown) : ____ 2.97

====

- protocol_description: Compound 122 saliva concentrations in healthy human subjects after oral administration (HPLC-MS/MS)
- Type: in vivo
- protocol_conditions: human, saliva, po, 10 mg, EM + paroxetine; Day 1; 10 mg q.d. oral; 4 hr; read-out: Mean saliva concentration, EM + paroxetine, Mean ± SD
endpoint: concentration at 4 h (ng/mL)
Answer format: numeric, ng/mL implied, no suffix.

Reported concentration at 4 h, compound COc1ccc(OC(F)(F)F)cc1CNC1CCCNC1c1ccccc1 (stereo not shown) : ____ 0.632

meta.source: patent US20030211636A1
